assay: Pharmacokinetic test in rats, intravenous; format: in vivo; conditions: male, SD, rat, plasma, intravenous 1 mg/kg, read-out: curve area (AUC)
AUC: recorded values
Reply with just the number (in µg·h/mL).

Some molecules with known AUC results, for comparison:
Which measured AUC value corresponds to FC(F)Oc1ccccc1CNCCC1(c2ccccn2)CCOC2(CCCC2)C1 (stereo not drawn) ?
1.19

Try the molecule Clc1ccsc1CNCCC1(c2ccccn2)CCOC2(CCCC2)C1 (stereo not drawn)
0.337

And for Fc1ccc(C2(CCNCc3ccccc3OC(F)(F)F)CCOC3(CCCC3)C2)nc1 (stereo not drawn) ?
0.382

What would you report for CNc1ccsc1C(=O)NCCC1(c2ccccn2)CCOC2(CCCC2)C1 (stereo not drawn) ?
0.682

Can you handle FC(F)Oc1ccsc1CNCCC1(c2ccccn2)CCOC2(CCCC2)C1 (stereo not drawn) next?
0.582

More entries:
Endpoint output: AUC of Cc1ccc(CNCCC2(c3ccccn3)CCOC3(CCCC3)C2)cc1C (stereo not drawn) . Value?
0.583

Subsequent entry: FC(F)(F)Oc1ccc(Cl)cc1CNCCC1(c2ccccn2)CCOC2(CCCC2)C1 (stereo not drawn)
0.482

Then what about the molecule Cc1c(Cl)cccc1CNCCC1(c2ccccn2)CCOC2(CCCC2)C1 (stereo not drawn) ?
0.494

Same for FC(F)(F)Oc1cccc(CNCCC2(c3ccccn3)CCOC3(CCCC3)C2)c1 (stereo not drawn)
0.295

---

system: SD rats; assay: Respiratory depression in rats, arterial blood gas PCO2; format: in vivo; details: intravenous single dose 0.3 mg/kg (morphine 24 mg/kg), 120 min
QUANTITY_KIND: PCO2, 120 min after administration
Give the number first and the unit second.

# annotated cases, reported PCO2, 120 min after administration shown
I am curious: what PCO2, 120 min after administration value has been reported for Cc1ccc(CNCCC2(c3ccccn3)CCOC3(CCCC3)C2)c(C)c1 (stereo not drawn) ?
34.83 ± 1.15 mmHg

Check FC(F)Oc1ccccc1CNCCC1(c2ccccn2)CCOC2(CCCC2)C1 (stereo not drawn) too.
31.83 ± 1.40 mmHg

Quick one: CNc1ccsc1C(=O)NCCC1(c2ccccn2)CCOC2(CCCC2)C1 (stereo not drawn)
36.83 ± 1.73 mmHg

More entries:
Entry FC(F)Oc1ccsc1CNCCC1(c2ccccn2)CCOC2(CCCC2)C1 (stereo not drawn) : reported PCO2, 120 min after administration = ?
34.83 ± 1.45 mmHg

Would you mind doing Cc1cc(F)cnc1C1(CCNCc2ccccc2OC(F)(F)F)CCOC2(CCCC2)C1 (stereo not drawn) as well?
36.83 ± 1.85 mmHg

Similarly, FC(F)(F)Oc1ccc(Cl)cc1CNCCC1(c2ccccn2)CCOC2(CCCC2)C1 (stereo not drawn) ?
34.83 ± 1.15 mmHg

Entry to check: CN1CC[C@]23c4c5ccc(O)c4O[C@H]2[C@@H](O)C=C[C@H]3[C@H]1C5 [morphine, reference compound]
56.9 ± 4.05 mmHg

Do the same for Clc1ccsc1CNCCC1(c2ccccn2)CCOC2(CCCC2)C1 (stereo not drawn) please
35.7 ± 0.95 mmHg

Query Fc1ccc(C2(CCNCc3ccccc3OC(F)(F)F)CCOC3(CCCC3)C2)nc1 (stereo not drawn) next
36.83 ± 1.65 mmHg

---

Molecular target: μ opioid receptor (MOR) (Homo sapiens)
Sequence (P35372 whole entry, species assumed): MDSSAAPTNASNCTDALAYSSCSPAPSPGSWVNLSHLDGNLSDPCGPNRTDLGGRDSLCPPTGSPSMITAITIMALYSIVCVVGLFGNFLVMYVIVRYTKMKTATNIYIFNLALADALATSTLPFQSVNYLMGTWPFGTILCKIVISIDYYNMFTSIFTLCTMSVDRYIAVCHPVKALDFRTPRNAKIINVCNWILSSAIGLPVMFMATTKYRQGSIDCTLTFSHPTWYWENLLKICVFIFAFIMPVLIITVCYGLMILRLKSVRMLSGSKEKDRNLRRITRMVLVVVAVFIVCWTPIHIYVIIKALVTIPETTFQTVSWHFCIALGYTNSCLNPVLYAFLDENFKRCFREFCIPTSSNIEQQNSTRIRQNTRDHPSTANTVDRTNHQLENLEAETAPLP
Experiment: cell-based
Settings: HEK293 stably expressing μ opioid receptor, FLIPR calcium
Description: The purpose of the experiment was to test the agonistic effects of the compounds of the present invention on μ opioid receptor (MOR), κ opioid receptor (KOR) and δ opioid receptor (DOR), and to evaluate in vitro activity of the compounds according to the half-maximal effect concentration (EC50). […]
Simple rule here: EC50 less than 6 nM is satisfied, otherwise not satisfied.

Solved entries (count: 3):
Lab note: confirm whether the reported EC50 for this compound is below 6 nM, equality not counting. compound: Cc1ccc(CNCCC2(c3ccccn3)CCOC3(CCCC3)C2)cc1C (stereo not drawn)
satisfied

Ok, now CNc1ccccc1CNCCC1(c2ccccn2)CCOC2(CCCC2)C1 (stereo not drawn)
not satisfied

Try this compound next: FC(F)(F)Oc1ccccc1CNCCC1(c2ccccn2)CCOC2(CCCC2)C1 (stereo not drawn)
satisfied

--- query ---
Lab note: EC50 threshold 6 nM. Does this compound come in strictly under it? N#Cc1cccc(CNCCC2(c3ccccn3)CCOC3(CCCC3)C2)c1OC(F)(F)F (stereo not drawn)
satisfied
